Assay: gradient 5% acetonitrile 3 min, to 50% in 2 min, to 85% in 15 min, held 3 min, 100 µL/min
Conditions: column: Zorbax Extend-C18 2.1 x 50 mm; eluents: water / acetonitrile, 0.1% formic acid
# RP-LC retention time per record follows
Hi! Could you send only the number? It should be in s, unit omitted.

> print(dat)
                                   compound  data.value
1     NC(=O)CNC(=O)c1cc2c(s1)N(CC1CC1)CCCC2         692
2  COc1ccc(Nc2nc(N3CCN(c4ccc(F)cc4)CC3)nc3n[nH]nc23)cc1         840
3  CC(C(=O)NCCCN1CCCCCC1)n1ccc2cc(S(=O)(=O)N3CCCCCC3)ccc21 (stereo not given)         604
4       O=C(Cn1nc(-c2ccco2)ccc1=O)NCc1ccco1         628
5  O=C(CN1CCc2ccccc2C1C(=O)N1CCCCC1)NCc1cccc(Cl)c1 (stereo not given)         913

For record `CCOc1ccc(-c2ccc(=O)n(CCNC(=O)c3cc(C)oc3C)n2)cc1` the listed RP-LC retention time is 765

For record O=C(Cc1ccc(Br)cc1)NC1CCN(c2cc(-c3ccc(Cl)cc3)[nH]n2)C1 (stereo not given) the listed RP-LC retention time is 854

For record `O=C(Nc1nccs1)c1cccc(NS(=O)(=O)c2ccc(F)cc2)c1` the listed RP-LC retention time is 751

For record `COc1ccc(OC)c(CNC(=O)c2cn3c(n2)COCC3)c1` the listed RP-LC retention time is 639

For record `COc1cccc(OC)c1C(=O)Nc1nnc(SCc2nnc(-c3ccccc3C)o2)s1` the listed RP-LC retention time is 888
